Just for reference, ChEMBL document CHEMBL5291721 is where these values come from.

target: Alpha-1A adrenergic receptor (Homo sapiens, UniProt P35348); format: functional, cell-based; note: assay procedure not described here
Sequence (P35348 whole entry): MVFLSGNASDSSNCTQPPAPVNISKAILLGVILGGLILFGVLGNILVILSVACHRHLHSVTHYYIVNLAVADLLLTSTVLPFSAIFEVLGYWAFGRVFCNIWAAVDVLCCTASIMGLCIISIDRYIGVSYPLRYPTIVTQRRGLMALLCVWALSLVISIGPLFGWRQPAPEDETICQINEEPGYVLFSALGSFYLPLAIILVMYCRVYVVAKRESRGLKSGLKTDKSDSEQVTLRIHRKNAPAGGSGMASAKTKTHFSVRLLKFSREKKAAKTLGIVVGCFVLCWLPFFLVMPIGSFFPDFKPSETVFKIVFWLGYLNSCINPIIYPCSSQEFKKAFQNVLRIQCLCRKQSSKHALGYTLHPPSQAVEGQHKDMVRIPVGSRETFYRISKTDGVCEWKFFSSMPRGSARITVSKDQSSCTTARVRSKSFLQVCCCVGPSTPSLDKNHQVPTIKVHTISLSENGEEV
property-label: AC50

CC(Cc1ccccc1)NCCC(c1ccccc1)c1ccccc1 (stereo not drawn) ... > 30 µM
NC[C@H]1O[C@H](O[C@H]2[C@H](O)[C@@H](O[C@H]3O[C@H](CO)[C@@H](O)[C@H](N)[C@H]3O)[C@H](N)C[C@@H]2N)[C@H](O)[C@@H](O)[C@@H]1O ... > 30 µM
OCCN1CCN(CCCN2c3ccccc3C=Cc3ccccc32)CC1 ... 14 µM

Find the measured AC50 of CC(C(=O)O)c1ccc(N2CC=CC2)c(Cl)c1 (stereo not drawn) and report it.
> 30 µM

Find the measured AC50 of Cc1cccc(C)c1NC(=O)C1CCCCN1C (stereo not drawn) [MEPIVACAINE] and report it.
> 30 µM

Find the measured AC50 of O=C1NCCN1CCN1CCC(c2cn(-c3ccc(F)cc3)c3ccc(Cl)cc23)CC1 and report it.
0.64 µM

Find the measured AC50 of C#CCN(C)[C@H](C)Cc1ccccc1 and report it.
> 30 µM

Find the measured AC50 of CC(C)C(=O)Nc1ccc([N+](=O)[O-])c(C(F)(F)F)c1 [FLUTAMIDE] and report it.
> 30 µM

###

molecular target: Thromboxane A2 receptor (Homo sapiens, UniProt P21731); format: functional, cell-based; note: assay procedure not described here
Sequence (P21731 whole entry): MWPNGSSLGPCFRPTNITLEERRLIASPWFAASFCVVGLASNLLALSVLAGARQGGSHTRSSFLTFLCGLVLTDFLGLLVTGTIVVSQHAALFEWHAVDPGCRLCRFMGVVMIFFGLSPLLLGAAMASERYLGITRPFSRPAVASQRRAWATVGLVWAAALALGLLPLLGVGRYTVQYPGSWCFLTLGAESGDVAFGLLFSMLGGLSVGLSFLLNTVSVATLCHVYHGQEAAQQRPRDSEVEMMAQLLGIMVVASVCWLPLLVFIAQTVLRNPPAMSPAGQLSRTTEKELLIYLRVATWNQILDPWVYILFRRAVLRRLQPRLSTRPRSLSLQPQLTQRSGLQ
Entries and their measured AC50 follow.

Some entries whose results are on file:
C(=N\NC1=NCCN1)/c1c2ccccc2c(/C=N/NC2=NCCN2)c2ccccc12 [BISANTRENE] ... > 30 µM
Oc1c(I)cc(I)c2cccnc12 [IODOQUINOL] ... > 30 µM
CCC(=O)c1c(O)cc(O)cc1O [FLOPROPIONE] ... > 30 µM
CCS(=O)(=O)N1CC(CC#N)(n2cc(-c3ncnc4[nH]ccc34)cn2)C1 [BARICITINIB] ... > 10 µM
C#C[C@]1(O)CC[C@H]2[C@@H]3CCc4cc(O)ccc4[C@H]3CC[C@@]21C [ETHINYL ESTRADIOL] ... > 10 µM

Find the measured AC50 of CS(=O)(=O)Nc1cc2occ(NC=O)c(=O)c2cc1Oc1ccccc1 [IGURATIMOD] and report it.
> 30 µM

Find the measured AC50 of CCOC(=O)C(c1c(O)c2ccccc2oc1=O)c1c(O)c2ccccc2oc1=O [ETHYL BISCOUMACETATE] and report it.
> 30 µM

Find the measured AC50 of Cc1c(O)cccc1C(=O)N[C@@H](CSc1ccccc1)[C@H](O)CN1C[C@H]2CCCC[C@H]2C[C@H]1C(=O)NC(C)(C)C and report it.
13.2 µM

###

Target: UniProt P08913
Sequence (P08913 whole entry): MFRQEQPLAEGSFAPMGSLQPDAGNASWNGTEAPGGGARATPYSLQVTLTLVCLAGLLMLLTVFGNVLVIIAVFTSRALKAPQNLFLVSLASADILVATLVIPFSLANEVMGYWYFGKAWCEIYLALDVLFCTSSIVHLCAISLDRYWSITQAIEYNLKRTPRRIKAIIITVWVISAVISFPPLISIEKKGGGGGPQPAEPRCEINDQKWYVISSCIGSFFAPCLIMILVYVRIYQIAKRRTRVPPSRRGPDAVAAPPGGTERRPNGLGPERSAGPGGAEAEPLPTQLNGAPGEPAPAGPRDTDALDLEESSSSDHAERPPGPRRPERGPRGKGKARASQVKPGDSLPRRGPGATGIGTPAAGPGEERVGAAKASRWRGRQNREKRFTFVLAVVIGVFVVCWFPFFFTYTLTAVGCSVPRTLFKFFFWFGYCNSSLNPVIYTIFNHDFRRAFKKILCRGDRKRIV
Type: functional, cell-based
property-label: AC50

Some entries whose results are on file:
COC(=O)[C@@H]1CC2=CC(=O)CC[C@]2(C)[C@@]23O[C@@H]2C[C@@]2(C)[C@@H](CC[C@@]24CCC(=O)O4)[C@H]13 ... > 30 µM
Nc1ncnc2c1ncn2[C@@H]1O[C@H](COP(=O)(O)O)[C@@H](O)[C@H]1O [ADENOSINE PHOSPHATE] ... > 30 µM
O=C(NC[C@H]1CN(c2ccc(N3CCOCC3=O)cc2)C(=O)O1)c1ccc(Cl)s1 ... > 30 µM

Find the measured AC50 of C#C[C@]1(O)CC[C@H]2[C@@H]3CCc4cc(O)ccc4[C@H]3CC[C@@]21C and report it.
> 10 µM

Find the measured AC50 of CN(CCCN1c2ccccc2CCc2ccccc21)CC(=O)c1ccc(Cl)cc1 and report it.
> 30 µM

Find the measured AC50 of Cc1cccc(C)c1OCC(C)N (stereo not drawn) and report it.
> 30 µM

Find the measured AC50 of C#CCN[C@@H]1CCc2ccccc21 and report it.
> 30 µM

###

target: Voltage-dependent L-type calcium channel subunit alpha-1C (Rattus norvegicus); assay type: functional; note: assay procedure not described here
Sequence (P22002 whole entry): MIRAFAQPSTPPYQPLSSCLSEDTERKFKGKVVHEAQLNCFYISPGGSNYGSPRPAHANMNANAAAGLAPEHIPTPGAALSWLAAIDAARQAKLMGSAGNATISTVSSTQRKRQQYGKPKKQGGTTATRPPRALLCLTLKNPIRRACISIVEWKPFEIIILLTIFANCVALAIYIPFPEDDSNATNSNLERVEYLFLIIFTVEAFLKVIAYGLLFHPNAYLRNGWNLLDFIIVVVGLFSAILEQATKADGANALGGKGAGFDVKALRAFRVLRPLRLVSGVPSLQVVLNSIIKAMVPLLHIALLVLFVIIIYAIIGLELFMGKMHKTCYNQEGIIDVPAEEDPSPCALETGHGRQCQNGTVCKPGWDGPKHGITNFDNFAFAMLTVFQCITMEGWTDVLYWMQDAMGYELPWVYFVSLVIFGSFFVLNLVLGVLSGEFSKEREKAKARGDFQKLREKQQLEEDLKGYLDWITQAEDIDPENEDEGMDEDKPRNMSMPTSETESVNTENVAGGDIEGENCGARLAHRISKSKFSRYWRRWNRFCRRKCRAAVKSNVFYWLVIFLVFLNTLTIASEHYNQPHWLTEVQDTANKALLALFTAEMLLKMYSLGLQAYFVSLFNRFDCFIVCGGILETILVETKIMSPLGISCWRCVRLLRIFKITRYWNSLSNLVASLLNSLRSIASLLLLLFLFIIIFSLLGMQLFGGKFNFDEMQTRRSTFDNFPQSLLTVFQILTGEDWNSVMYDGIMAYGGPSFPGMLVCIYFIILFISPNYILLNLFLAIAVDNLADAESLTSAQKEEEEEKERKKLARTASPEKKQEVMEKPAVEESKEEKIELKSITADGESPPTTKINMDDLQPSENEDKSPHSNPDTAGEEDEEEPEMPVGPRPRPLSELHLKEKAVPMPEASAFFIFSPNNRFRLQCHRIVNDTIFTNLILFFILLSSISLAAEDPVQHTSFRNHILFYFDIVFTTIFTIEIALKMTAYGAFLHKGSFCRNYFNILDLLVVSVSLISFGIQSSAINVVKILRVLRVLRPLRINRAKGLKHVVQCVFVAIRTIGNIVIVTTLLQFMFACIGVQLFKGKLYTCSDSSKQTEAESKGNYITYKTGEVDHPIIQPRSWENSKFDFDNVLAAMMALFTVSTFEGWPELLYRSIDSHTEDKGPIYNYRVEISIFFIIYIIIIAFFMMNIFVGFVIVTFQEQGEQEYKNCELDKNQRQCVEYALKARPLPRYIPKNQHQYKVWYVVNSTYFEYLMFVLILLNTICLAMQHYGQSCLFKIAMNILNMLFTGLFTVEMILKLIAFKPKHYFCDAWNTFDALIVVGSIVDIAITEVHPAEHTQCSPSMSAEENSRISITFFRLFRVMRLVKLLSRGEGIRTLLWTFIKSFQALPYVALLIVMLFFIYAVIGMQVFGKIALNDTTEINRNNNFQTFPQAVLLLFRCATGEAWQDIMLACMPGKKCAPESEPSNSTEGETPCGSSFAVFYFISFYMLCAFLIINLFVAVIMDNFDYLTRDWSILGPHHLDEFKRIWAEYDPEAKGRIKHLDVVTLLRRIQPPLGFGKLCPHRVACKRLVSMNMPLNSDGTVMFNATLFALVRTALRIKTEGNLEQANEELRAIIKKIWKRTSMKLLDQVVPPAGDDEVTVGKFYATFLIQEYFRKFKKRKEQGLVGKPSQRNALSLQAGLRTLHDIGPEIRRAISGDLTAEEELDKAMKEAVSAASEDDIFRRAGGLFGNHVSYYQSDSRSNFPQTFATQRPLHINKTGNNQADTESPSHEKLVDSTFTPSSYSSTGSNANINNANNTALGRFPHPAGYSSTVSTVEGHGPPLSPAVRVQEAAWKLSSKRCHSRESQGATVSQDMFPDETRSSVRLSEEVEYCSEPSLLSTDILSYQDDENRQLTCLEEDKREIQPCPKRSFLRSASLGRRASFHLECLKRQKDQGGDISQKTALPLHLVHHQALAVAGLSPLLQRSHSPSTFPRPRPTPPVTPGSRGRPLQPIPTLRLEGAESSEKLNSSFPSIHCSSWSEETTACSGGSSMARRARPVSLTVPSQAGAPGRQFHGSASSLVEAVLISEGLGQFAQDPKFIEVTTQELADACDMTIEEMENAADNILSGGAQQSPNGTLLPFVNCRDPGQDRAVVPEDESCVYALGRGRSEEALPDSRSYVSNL
Entries and their measured AC50 follow.

Find the measured AC50 of Nc1nc(N)c2nc(-c3ccccc3)c(N)nc2n1 and report it.
> 30 µM

Find the measured AC50 of CCN(CC)CCOC(=O)c1ccc(N)cc1 and report it.
> 10 µM

Find the measured AC50 of COC(=O)[C@@H]1CC2=CC(=O)CC[C@]2(C)[C@@]23O[C@@H]2C[C@@]2(C)[C@@H](CC[C@@]24CCC(=O)O4)[C@H]13 and report it.
> 10 µM

Find the measured AC50 of CN(C)[C@@H]1C(O)=C(C(N)=O)C(=O)[C@@]2(O)C(O)=C3C(=O)c4c(O)ccc(Cl)c4[C@@H](O)[C@H]3C[C@@H]12 and report it.
> 10 µM

Find the measured AC50 of O=C1NCCN1CCN1CCC(c2cn(-c3ccc(F)cc3)c3ccc(Cl)cc23)CC1 and report it.
> 30 µM

###

molecular target: Mu-type opioid receptor (Homo sapiens); note: assay procedure not described here
Sequence (P35372 whole entry): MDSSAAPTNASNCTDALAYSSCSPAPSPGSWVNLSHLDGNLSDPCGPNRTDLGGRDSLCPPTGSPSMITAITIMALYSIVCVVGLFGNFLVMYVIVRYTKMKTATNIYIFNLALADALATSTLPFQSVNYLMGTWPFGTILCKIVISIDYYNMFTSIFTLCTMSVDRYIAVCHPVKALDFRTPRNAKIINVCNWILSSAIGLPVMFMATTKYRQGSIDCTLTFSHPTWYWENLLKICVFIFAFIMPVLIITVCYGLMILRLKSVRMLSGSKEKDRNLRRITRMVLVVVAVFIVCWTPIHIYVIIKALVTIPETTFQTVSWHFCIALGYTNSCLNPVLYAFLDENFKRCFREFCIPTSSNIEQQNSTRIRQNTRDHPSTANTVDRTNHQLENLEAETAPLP
property-label: AC50 (nM)
Record the value in nM, omitting the unit from your answer.

COc1cc(NCc2ccc3nc(N)nc(N)c3c2C)cc(OC)c1OC [TRIMETREXATE] ... 1200

Alright, here's another compound for you.
Give AC50 for CN(C)CCCN1c2ccccc2CCc2ccc(Cl)cc21 [CLOMIPRAMINE] tested on Mu-type opioid receptor (Homo sapiens). Note: assay procedure not described here.
1900

###

Values of AC50 reported for Estrogen receptor (Homo sapiens, UniProt P03372) appear below.

N[C@@H](CSCC(=O)O)C(=O)O ... > 30 µM

Give AC50 for C#CCN(C)[C@H](C)Cc1ccccc1 tested on Estrogen receptor (Homo sapiens, UniProt P03372). Note: assay procedure not described here.
Sequence (P03372 whole entry): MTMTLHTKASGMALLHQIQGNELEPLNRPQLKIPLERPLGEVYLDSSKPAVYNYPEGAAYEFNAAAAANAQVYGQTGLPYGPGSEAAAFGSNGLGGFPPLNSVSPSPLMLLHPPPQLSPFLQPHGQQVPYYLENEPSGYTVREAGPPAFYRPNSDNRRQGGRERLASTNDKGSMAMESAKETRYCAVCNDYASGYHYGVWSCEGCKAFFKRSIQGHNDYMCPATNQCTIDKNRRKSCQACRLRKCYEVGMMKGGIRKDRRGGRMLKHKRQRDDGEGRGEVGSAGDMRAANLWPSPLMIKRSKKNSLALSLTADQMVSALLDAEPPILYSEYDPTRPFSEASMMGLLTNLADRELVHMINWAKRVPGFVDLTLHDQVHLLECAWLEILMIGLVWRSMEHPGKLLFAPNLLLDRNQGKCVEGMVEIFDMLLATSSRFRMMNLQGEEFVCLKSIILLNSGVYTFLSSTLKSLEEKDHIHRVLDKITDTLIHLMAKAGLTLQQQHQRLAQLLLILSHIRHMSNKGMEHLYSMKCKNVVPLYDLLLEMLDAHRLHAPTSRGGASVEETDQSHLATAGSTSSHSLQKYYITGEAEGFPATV
> 10 µM

Give AC50 for O=C(OCCN1CCOCC1)c1cccnc1Nc1cccc(C(F)(F)F)c1 [MORNIFLUMATE] tested on Estrogen receptor (Homo sapiens, UniProt P03372). Note: assay procedure not described here.
> 30 µM

###

biological target: Amine oxidase [flavin-containing] A (Homo sapiens); format: functional; note: assay procedure not described here
Sequence (P21397 whole entry): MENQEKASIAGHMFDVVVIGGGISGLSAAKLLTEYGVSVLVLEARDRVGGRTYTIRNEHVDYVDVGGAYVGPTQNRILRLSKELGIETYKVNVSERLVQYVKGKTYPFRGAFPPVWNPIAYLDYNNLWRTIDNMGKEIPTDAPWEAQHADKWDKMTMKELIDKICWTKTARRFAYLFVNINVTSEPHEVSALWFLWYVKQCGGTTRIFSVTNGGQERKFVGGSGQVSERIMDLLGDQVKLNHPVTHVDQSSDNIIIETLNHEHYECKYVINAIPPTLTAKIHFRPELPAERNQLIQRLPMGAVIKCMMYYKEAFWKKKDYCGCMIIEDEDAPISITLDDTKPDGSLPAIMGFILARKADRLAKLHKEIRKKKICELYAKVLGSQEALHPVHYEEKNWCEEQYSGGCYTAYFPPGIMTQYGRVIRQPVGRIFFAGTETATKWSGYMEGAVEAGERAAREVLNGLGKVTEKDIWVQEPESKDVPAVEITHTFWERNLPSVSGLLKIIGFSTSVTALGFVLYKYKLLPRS
property-label: AC50

Some entries whose results are on file:
C1=Cc2cccc(OCC3CNCCO3)c2C1 (configuration not stated) [INDELOXAZINE] ... > 30 µM
CN[C@@H](C)[C@H](O)c1ccccc1 [EPHEDRINE] ... > 10 µM
COC(=O)C1=C(C)NC(C)=C(C(=O)OCC(C)C)C1c1ccccc1[N+](=O)[O-] (configuration not stated) [NISOLDIPINE] ... > 10 µM
CC(C)NCC(O)COc1ccc(COCCOC(C)C)cc1 (configuration not stated) [BISOPROLOL] ... > 10 µM
NS(=O)(=O)c1cc2c(cc1Cl)NCNS2(=O)=O [HYDROCHLOROTHIAZIDE] ... > 10 µM
CC(=O)N[C@H]1[C@H]([C@H](O)[C@H](O)CO)OC(C(=O)O)=C[C@@H]1N=C(N)N [ZANAMIVIR] ... > 30 µM

Give AC50 for CC[C@H](C)C(=O)O[C@H]1C[C@H](O)C=C2C=C[C@H](C)[C@H](CC[C@@H](O)C[C@@H](O)CC(=O)O)[C@H]21 [PRAVASTATIN] tested on Amine oxidase [flavin-containing] A (Homo sapiens). Note: assay procedure not described here.
> 30 µM

Give AC50 for CN(CCOc1ccc(NS(C)(=O)=O)cc1)CCc1ccc(NS(C)(=O)=O)cc1 [DOFETILIDE] tested on Amine oxidase [flavin-containing] A (Homo sapiens). Note: assay procedure not described here.
> 10 µM

Give AC50 for CN1CCCC(n2nc(Cc3ccc(Cl)cc3)c3ccccc3c2=O)CC1 (configuration not stated) [AZELASTINE] tested on Amine oxidase [flavin-containing] A (Homo sapiens). Note: assay procedure not described here.
> 30 µM

Give AC50 for OCc1cc([C@@H](O)CNCCCCCCOCCOCc2c(Cl)cccc2Cl)ccc1O [VILANTEROL] tested on Amine oxidase [flavin-containing] A (Homo sapiens). Note: assay procedure not described here.
> 30 µM

Give AC50 for CO/N=C(\C(=O)N[C@@H]1C(=O)N2C(C(=O)[O-])=C(C[N+]3(C)CCCC3)CS[C@H]12)c1csc(N)n1 tested on Amine oxidase [flavin-containing] A (Homo sapiens). Note: assay procedure not described here.
> 300 µM

Give AC50 for O=C(Cn1ccnc1[N+](=O)[O-])NCc1ccccc1 [BENZNIDAZOLE] tested on Amine oxidase [flavin-containing] A (Homo sapiens). Note: assay procedure not described here.
> 30 µM

Give AC50 for CC(C)(Oc1ccc(C2CC2(Cl)Cl)cc1)C(=O)O (configuration not stated) [CIPROFIBRATE] tested on Amine oxidase [flavin-containing] A (Homo sapiens). Note: assay procedure not described here.
> 30 µM

Give AC50 for CCCCC(C)(O)C/C=C/[C@H]1[C@H](O)CC(=O)[C@@H]1CCCCCCC(=O)OC (some centres not stated) [MISOPROSTOL] tested on Amine oxidase [flavin-containing] A (Homo sapiens). Note: assay procedure not described here.
> 30 µM

Give AC50 for CO/N=C(\C(=O)N[C@@H]1C(=O)N2C(C(=O)OCOC(=O)C(C)(C)C)=C(C)CS[C@H]12)c1csc(N)n1 tested on Amine oxidase [flavin-containing] A (Homo sapiens). Note: assay procedure not described here.
> 30 µM

Give AC50 for C[C@H]1C[C@@H]2[C@H]([C@@H](O)C[C@@]3(C)[C@H]2CC[C@]3(O)C(=O)COC(=O)CCC(=O)O)[C@@]2(C)C=CC(=O)C=C12 [METHYLPREDNISOLONE HEMISUCCINATE] tested on Amine oxidase [flavin-containing] A (Homo sapiens). Note: assay procedure not described here.
> 30 µM

Give AC50 for CCN(CC)CCOC(=O)c1ccc(N)cc1 [PROCAINE] tested on Amine oxidase [flavin-containing] A (Homo sapiens). Note: assay procedure not described here.
16 µM
